Data origin: patent US20080175801A1

- Protocol Details: Accelerated stability of flavor components in peroxide mouthrinse, measured by gas chromatography
- Format: physicochemical
- Cond: formulation IB untreated; 40° C., 75% RH; component at 0.005%; vs day 0
Listed next: entries and their corresponding % Reduction at day 31, Untreated.
Express the result in % but write the number alone.

CC=Cc1ccc(OC)cc1: 100
C=C(C)[C@H]1CC=C(C)CC1: 100
CCCC(=O)OCC [Ethylbutyrate]: 20
CCCCCCCCCC=O: 80

// next entry
# input Return reported % Reduction at day 31, Untreated; argument: C=C(C)C1CC=C(C)C(=O)C1 (centres unmarked)
# output 20

----------
- Protocol Details: Accelerated stability of flavor components in peroxide mouthrinse, measured by gas chromatography
- Assay type: physicochemical
- Cond: Formula IB, no radical scavenger, not treated to remove metals; 40° C., 75% RH; component at 0.005%
Experimental Endpoint: % Reduction at day 17, Formula IB (%)
Only the number, expressed in %, is required.

CC=Cc1ccc(OC)cc1 [Anethole]: 100
CCCC(=O)OCC [Ethylbutyrate]: 20
C=C(C)[C@H]1CC=C(C)CC1 [Limonene]: 100
CCCCCCCCCC=O [Decanal]: 80

Moving on to the next molecule.
# input Need % Reduction at day 17, Formula IB of C=C(C)C1CC=C(C)C(=O)C1 (centres unmarked) [Carvone] , thanks.
# output 20
